Source listed as ChEMBL document CHEMBL1201862.

TEST SYSTEM: Corticotropin-releasing factor receptor 2/Corticotropin-releasing factor-binding protein (Homo sapiens, UniProt P24387+Q13324)
Sequence (Q13324 whole entry): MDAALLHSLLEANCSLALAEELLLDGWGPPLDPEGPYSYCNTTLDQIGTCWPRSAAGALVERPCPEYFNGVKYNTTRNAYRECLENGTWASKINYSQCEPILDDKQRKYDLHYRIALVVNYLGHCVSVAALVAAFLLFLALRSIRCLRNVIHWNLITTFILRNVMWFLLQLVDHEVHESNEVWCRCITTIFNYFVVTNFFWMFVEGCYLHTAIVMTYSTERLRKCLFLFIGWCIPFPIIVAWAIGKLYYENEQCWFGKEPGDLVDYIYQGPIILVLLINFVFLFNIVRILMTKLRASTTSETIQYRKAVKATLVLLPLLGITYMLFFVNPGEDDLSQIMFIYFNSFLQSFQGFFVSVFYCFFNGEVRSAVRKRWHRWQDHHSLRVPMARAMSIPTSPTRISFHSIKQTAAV
Sequence (P24387 whole entry): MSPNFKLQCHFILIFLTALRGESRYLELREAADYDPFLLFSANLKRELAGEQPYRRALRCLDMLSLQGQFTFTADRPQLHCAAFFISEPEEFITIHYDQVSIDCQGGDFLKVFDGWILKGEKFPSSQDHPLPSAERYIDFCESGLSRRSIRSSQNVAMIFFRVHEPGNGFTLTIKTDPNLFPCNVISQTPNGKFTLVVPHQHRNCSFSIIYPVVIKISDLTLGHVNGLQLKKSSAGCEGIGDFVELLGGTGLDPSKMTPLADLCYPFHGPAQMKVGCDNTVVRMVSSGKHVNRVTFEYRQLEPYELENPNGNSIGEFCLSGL
TEST: activators of CRF receptor 2 with binding protein – uHTS hits, confirmation (AID 602473)
Format: functional
MEASUREMENT SETUP: read-out: EC50_Mean
Active and inactive are the calls of the source.
Answer with one of the outcomes given here: active, inactive

Recorded results for 3 compounds are shown here.
COMPOUND	LABEL
Cc1ncsc1C(=O)N1CCCC(C(=O)c2ccc3ccccc3c2)C1 (centres undefined)	inactive
O=c1[nH]c2ccc(Cl)cc2[nH]1	inactive
CC1(C)C[C@H](O)[C@@]23C[C@@H](OC2=O)[C@]2(C)C(=CCC4[C@@]5(C)CC[C@H](O)C(C)(C)C5CC[C@]42C)[C@@H]3C1 (some centres undefined)	active

Now consider a different compound.
Input: Record request — test call for `Cc1ccccc1NC(=O)Cc1nc(COC(=O)c2cc([N+](=O)[O-])ccc2NCCO)cs1`
Output: inactive

----------
TEST SYSTEM: Tumor necrosis factor (Homo sapiens, UniProt P01375)
Sequence (P01375 whole entry): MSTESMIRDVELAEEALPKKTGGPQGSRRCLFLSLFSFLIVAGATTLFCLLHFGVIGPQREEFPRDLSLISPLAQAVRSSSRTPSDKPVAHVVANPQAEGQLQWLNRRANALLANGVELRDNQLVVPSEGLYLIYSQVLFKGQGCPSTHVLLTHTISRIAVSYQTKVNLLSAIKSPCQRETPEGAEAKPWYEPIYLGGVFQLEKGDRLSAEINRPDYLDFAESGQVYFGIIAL
TEST: TNFa-triggered NF-kB activation inhibitors, SAR follow-up, cell-based, revised (AID 2337)
Format: functional
Active and inactive are the calls of the source.
Answer with one of the outcomes given here: class 1 for active, class 0 for inactive

Recorded results for 4 compounds are shown here.
COMPOUND	LABEL
COc1ccc(CNc2ncnc3sccc23)cc1OC	class 1
CN(Cc1ccc(F)cc1)S(=O)(=O)c1nnc(NC(=O)c2ccccc2)s1	class 1
Cc1nc(CN(C)C(=O)c2cc(COc3ccc4ncccc4c3)on2)cs1	class 0
CC1CCc2c(sc(NC(=O)c3cccs3)c2C(=O)O)C1 (stereo not given)	class 0

Now consider a different compound.
Input: Record request — test call for `CCC(=O)N1CCc2cc(S(=O)(=O)N3CCN(c4ccc([N+](=O)[O-])cc4)CC3)ccc21`
Output: class 0

----------
TEST SYSTEM: Dual specificity tyrosine-phosphorylation-regulated kinase 1A (Rattus norvegicus)
Type: biochemical, Homo sapiens
Calls of active or inactive are those of the source.
Answer with one of the outcomes given here: active, inactive

Recorded results for 2 compounds are shown here.
MOL	LABEL
COc1ccc2cc(-c3cccnc3)ncc2c1	active
COc1ccc(-c2cc(NCCc3ccncc3)n3ncnc3n2)cc1	inactive

Input: Record request — test call for `c1ccc2c3c([nH]c2c1)-c1n[nH]cc1CC3`
Output: active

Input: Record request — test call for `COc1cccc(-c2sc3ccccc3c2-c2ccc(OCCN3CCCC3)cc2)c1`
Output: active

----------
TEST SYSTEM: Apoptotic protease-activating factor 1 (Homo sapiens)
Sequence (O14727 whole entry): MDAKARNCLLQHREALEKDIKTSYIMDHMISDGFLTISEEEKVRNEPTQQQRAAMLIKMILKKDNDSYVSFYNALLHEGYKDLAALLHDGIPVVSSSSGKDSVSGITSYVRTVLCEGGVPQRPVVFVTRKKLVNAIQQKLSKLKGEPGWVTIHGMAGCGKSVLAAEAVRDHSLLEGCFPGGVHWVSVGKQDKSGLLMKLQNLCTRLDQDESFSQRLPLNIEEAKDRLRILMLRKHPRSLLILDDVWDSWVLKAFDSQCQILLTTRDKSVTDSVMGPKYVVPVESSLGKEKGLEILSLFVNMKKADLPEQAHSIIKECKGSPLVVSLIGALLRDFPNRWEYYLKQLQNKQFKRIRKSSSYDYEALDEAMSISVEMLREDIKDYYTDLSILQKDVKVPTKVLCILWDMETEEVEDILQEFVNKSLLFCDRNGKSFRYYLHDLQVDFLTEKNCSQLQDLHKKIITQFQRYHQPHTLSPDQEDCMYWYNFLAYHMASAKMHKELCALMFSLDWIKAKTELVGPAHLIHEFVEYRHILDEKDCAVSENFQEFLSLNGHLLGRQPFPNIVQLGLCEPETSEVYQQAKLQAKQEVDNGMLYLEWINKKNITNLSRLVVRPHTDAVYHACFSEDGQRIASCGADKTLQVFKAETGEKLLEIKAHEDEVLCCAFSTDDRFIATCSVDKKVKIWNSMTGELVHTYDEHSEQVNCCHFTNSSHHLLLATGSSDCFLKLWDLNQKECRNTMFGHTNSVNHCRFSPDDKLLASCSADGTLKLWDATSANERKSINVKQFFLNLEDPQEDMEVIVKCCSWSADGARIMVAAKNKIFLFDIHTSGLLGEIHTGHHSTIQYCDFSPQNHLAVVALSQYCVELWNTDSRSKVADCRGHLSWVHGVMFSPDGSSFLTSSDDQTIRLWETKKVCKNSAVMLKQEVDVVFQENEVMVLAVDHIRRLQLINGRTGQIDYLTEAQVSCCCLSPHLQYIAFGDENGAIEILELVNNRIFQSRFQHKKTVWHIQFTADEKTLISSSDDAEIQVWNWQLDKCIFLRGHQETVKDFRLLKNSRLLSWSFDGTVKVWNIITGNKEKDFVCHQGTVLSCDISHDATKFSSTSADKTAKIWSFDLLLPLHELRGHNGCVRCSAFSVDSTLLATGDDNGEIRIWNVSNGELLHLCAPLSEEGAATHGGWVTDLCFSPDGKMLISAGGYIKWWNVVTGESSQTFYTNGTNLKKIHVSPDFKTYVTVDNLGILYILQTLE
Type: functional
Calls of active or inactive are those of the source.
Some compounds, each annotated with its measured IC50.

Some entries whose results are on file:
MOL	IC50
O=C(NC1(O)C(=O)c2ccccc2C1=O)c1ccccc1	3.22 µM (active)
CCOc1ccccc1N1CCN(C(=O)C2c3ccccc3Oc3ccccc32)CC1	29.3 µM (active)
Cc1[nH]n(-c2ccccc2)c(=O)c1/C=N/NC(=O)c1cccc(F)c1	7.78 µM (active)
Cc1n[nH]c(O)c1C(c1ccc(-c2cccc(Cl)c2)o1)c1c(C)n[nH]c1O	17.4 µM (active)
CCOc1cc(NCc2ccccc2)c2ncn(C(C)C)c2c1	34.7 µM (active)

Input: GET /values?readout=IC50&item= `Cc1cc(C)nc(/N=c2/ssnc2Cl)c1`
Output: 2.9 µM (active)

Input: GET /values?readout=IC50&item= `Cc1ccc(C)c(S(=O)(=O)/N=C2\C=C(NS(=O)(=O)c3ccccc3)C(=O)c3ccccc32)c1`
Output: 12 µM (active)

----------
TEST: inhibitors of firefly luciferase expression or activity, dose response, H4 neuroglioma cells, luminescence (AID 1990)
Assay type: functional, cell-based
Active and inactive are the calls of the source.
ENDPOINT NAME: EC50

Some entries whose results are on file:
MOLECULE	RESULT
CCN(CC)c1ccc(-c2nn3c(-c4[nH]nc5c4CCC5)nnc3s2)cc1	0.294 µM (active)
CCN1CCCC1CNC(=O)c1ccc2c(c1)NC(=O)/C(=C\c1ccc(C)cc1)S2 (stereo not drawn)	> 120 µM (not active)

Input: GET /values?readout=EC50&item= `COc1ccc(-c2c(C)nn3c(N)c(C#N)cnc23)cc1OC`
Output: 50.1 µM (active)

Input: GET /values?readout=EC50&item= `Cc1cc(C)c(S(C)(=O)=O)c(Oc2ccc(C(C)(C)C)cc2)n1`
Output: 15.7 µM (active)

Input: GET /values?readout=EC50&item= `COc1ccc2cc3c(N)nn(C(=O)Cc4c[nH]c5ccccc45)c3nc2c1`
Output: < 0.1 µM (active)

Input: GET /values?readout=EC50&item= `Cc1cc(C)c2cc(CN(CCO)C(=O)Nc3ccc(F)cc3)c(O)nc2c1`
Output: 18.3 µM (active)

Input: GET /values?readout=EC50&item= `CN1CCN(Cc2cc(COCc3ccccc3)c3cccnc3c2O)CC1`
Output: 7.01 µM (active)

Input: GET /values?readout=EC50&item= `CCC(=O)Nc1nc2ccccc2n1Cc1ccc(C)cc1`
Output: 15.1 µM (active)

----------
TEST SYSTEM: RNA-binding protein pos-1 (Caenorhabditis elegans)
Sequence (G5EF15 whole entry, the tested form may be a part): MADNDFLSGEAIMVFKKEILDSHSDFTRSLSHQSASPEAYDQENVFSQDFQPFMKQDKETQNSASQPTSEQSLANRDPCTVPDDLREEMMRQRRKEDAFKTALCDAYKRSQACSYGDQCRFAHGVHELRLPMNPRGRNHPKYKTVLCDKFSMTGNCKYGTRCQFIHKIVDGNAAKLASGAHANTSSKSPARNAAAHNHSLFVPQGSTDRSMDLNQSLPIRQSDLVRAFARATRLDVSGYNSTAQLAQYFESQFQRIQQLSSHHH
TEST: inhibitors of POS-1/mex-3 RNA binding, dose response, biochemical, fluorescence polarization (AID 1964);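 note: purified POS-1 fused to maltose binding protein made in E. coli; potency of compounds blocking POS-1 binding to fluorescent RNA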
Calls of active or inactive are those of the source.
ENDPOINT NAME: EC50

Some entries whose results are on file:
MOLECULE	EC50
N=c1c(C(=O)NC2CCCCC2)cc2c(=O)n3ccccc3nc2n1CCc1ccccc1	15.2 µM (active)
CCOCCCNC(=O)CCC(=O)NNc1nc2ccccc2c2nc(C)nn12	> 300 µM (not active)
COc1ccccc1Nc1nc2nonc2nc1N1CCCCC1C (stereo not drawn)	95.5 µM (active)

Input: GET /values?readout=EC50&item= `Cc1n[nH]c(S/C(=C/c2ccc(-c3cccc(Cl)c3)o2)C(=O)O)n1`
Output: > 300 µM (not active)

Input: GET /values?readout=EC50&item= `O=C1CSC(=S)N1N1C(=O)c2cccc([N+](=O)[O-])c2C1=O`
Output: 24.9 µM (active)

Input: GET /values?readout=EC50&item= `Oc1ccc(/C=N/Nc2ccc(Cl)nn2)c(O)c1O`
Output: 50 µM (inconclusive)

Input: GET /values?readout=EC50&item= `Cc1cc(O)cc2c1C(=O)/C(=C/c1ccco1)O2`
Output: 15.8 µM (active)

Input: GET /values?readout=EC50&item= `CNc1c(N)n(Cc2ccccc2)c(=O)[nH]c1=O`
Output: > 300 µM (not active)

----------
TEST SYSTEM: Sentrin-specific protease 8 (Homo sapiens, UniProt Q96LD8);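 note: kinetic enzyme assay of SENP8 cleaving a Nedd8 protein substrate, dose-response confirmation of screening hits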
Sequence (Q96LD8 whole entry): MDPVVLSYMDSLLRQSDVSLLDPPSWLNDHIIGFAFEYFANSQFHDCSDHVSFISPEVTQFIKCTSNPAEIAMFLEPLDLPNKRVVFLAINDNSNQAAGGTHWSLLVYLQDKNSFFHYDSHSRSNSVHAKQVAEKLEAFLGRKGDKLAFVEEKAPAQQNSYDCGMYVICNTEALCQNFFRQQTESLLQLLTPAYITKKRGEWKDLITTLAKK
Format: functional
Activity calls are given as the source filed them.
ENDPOINT NAME: IC50

Some entries whose results are on file:
MOL	RESULT
CCOc1ccc(NC(S)=Nc2ccc3nsnc3c2)cc1	2.32 µM (active)
O=C1CC(N2CCOCC2)=NN1c1ccc([N+](=O)[O-])cc1	24.6 µM (active)

Input: Form field: IC50 recorded for `Cc1n[nH]c(O)c1C(c1ccc(-c2cccc(Cl)c2)o1)c1c(C)n[nH]c1O` with Sentrin-specific protease 8 (Homo sapiens, UniProt Q96LD8) (enter value)
Output: 3.19 µM (active)

Input: Form field: IC50 recorded for `COc1cc(NCCCCCCN)c2ncccc2c1OC` with Sentrin-specific protease 8 (Homo sapiens, UniProt Q96LD8) (enter value)
Output: 0.434 µM (active)

----------
TEST SYSTEM: DNA dC->dU-editing enzyme APOBEC-3G (Homo sapiens);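 note: Dose-response counterscreen measuring inhibition of APOBEC3G DNA deaminase activity, run while confirming APOBEC3A inhibitors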
Sequence (Q9HC16 whole entry): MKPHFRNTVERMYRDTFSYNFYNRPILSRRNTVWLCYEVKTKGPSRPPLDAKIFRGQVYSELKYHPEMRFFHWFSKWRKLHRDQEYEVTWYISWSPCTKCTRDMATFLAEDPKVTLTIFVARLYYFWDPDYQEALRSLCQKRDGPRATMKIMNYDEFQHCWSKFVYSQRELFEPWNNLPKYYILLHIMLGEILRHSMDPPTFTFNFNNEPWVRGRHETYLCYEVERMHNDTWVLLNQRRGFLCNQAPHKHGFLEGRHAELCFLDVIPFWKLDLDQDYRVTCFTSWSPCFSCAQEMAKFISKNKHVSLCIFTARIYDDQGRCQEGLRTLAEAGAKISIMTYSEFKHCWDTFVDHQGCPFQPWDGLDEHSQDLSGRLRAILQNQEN
Assay type: functional
The source made the active and inactive calls.
Some compounds, each annotated with its measured IC50.

COMPOUND	RESULT
CN1CCN(CC(=O)Nc2sc3c(c2C(=O)Nc2ccccc2)CCCC3)CC1	5.56 µM (active)
CCN1C(N(C)CCc2cccs2)=N[C@@H](c2ccccc2)C(C(=O)OC)=C1C	8.2 µM (active)
Cc1c(NC(=O)c2nc[nH]n2)cccc1-c1nc2ccccc2s1	2.54 µM (active)

Input: GET /values?readout=IC50&item= CCc1n(CC(O)COCC2CC=CCC2)c2ccccc2[n+]1C (centres undefined)
Output: 3.7 µM (active)

----------
TEST SYSTEM: Genome polyprotein (dengue virus type 2)
Sequence (P29990 2492-3391 limits assumed): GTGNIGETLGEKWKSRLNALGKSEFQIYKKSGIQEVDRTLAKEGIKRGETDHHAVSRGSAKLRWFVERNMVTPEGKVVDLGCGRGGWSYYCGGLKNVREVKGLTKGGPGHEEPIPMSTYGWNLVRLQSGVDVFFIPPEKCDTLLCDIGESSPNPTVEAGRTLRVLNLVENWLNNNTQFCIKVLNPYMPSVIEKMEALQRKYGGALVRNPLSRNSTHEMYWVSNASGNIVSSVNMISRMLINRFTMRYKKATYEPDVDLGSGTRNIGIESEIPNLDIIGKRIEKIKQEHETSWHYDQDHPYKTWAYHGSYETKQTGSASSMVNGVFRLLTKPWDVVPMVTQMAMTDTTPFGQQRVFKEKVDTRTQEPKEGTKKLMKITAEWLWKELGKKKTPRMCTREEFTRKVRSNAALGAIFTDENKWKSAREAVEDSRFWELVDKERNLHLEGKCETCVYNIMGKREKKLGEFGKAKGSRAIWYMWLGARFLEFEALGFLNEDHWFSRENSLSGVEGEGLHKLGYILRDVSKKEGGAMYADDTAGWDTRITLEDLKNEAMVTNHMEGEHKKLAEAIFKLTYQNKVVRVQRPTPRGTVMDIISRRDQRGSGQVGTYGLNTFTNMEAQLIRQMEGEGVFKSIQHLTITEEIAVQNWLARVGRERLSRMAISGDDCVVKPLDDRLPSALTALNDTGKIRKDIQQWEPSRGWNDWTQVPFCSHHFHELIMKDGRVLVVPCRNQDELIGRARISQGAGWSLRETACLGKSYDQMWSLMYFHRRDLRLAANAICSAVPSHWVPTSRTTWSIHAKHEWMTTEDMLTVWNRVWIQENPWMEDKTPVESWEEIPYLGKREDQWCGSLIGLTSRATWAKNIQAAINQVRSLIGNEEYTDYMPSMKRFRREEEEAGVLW
TEST: Dengue-2 NS5 methyltransferase inhibitors, primary screen, biochemical, confirmation dose response (AID 588689)
Assay type: functional
The source made the active and inactive calls.
Some molecules, each annotated with its measured IC50.

Input: GET /values?readout=IC50&item= `O=C1NC(=S)NC(=O)C1=Cc1c(Cl)cccc1Cl`
Output: 26.9 µM (active)

Input: GET /values?readout=IC50&item= `Oc1ccc(/C=N/Nc2ccc(Cl)nn2)c(O)c1O`
Output: 16.4 µM (active)

Input: GET /values?readout=IC50&item= `O=C(O)CN1C(=O)/C(=C\c2cccc(OCc3ccc(Cl)cc3)c2)SC1=S`
Output: 39.5 µM (active)

Input: GET /values?readout=IC50&item= `Cc1n[nH]c(O)c1C(c1ccc(-c2cccc(Cl)c2)o1)c1c(C)n[nH]c1O`
Output: 56.5 µM (active)

Input: GET /values?readout=IC50&item= `O=C(NCCc1ccccc1)c1ccc2nc(-c3ccco3)c(-c3ccco3)nc2c1`
Output: 59.1 µM (active)

Input: GET /values?readout=IC50&item= `COc1cc(NCCCCCCN)c2ncccc2c1OC`
Output: > 100 µM (active)

Input: GET /values?readout=IC50&item= `Cc1ccc(C)c(S(=O)(=O)/N=C2\C=C(NS(=O)(=O)c3ccccc3)C(=O)c3ccccc32)c1`
Output: 97.8 µM (active)

Input: GET /values?readout=IC50&item= `CCOc1ccc(/C=C2\SC(=S)N(NS(=O)(=O)c3ccc(C)cc3)C2=O)cc1OC`
Output: 58.3 µM (active)

Input: GET /values?readout=IC50&item= `O=C(O)CC/C(=C\c1ccc(N2CCCC2)c([N+](=O)[O-])c1)c1nc2ccccc2s1`
Output: 43.1 µM (active)

Input: GET /values?readout=IC50&item= `CCOc1cc(/C=C2\C(=O)NC(=O)N(C)C2=O)cc([N+](=O)[O-])c1O`
Output: 19.9 µM (active)

Input: GET /values?readout=IC50&item= `O=C1C=CC(=O)N1N(c1ccccc1)c1ccccc1`
Output: 41.6 µM (active)
